target_under_test: Cholinesterase (Equus caballus, UniProt P81908)
Sequence (P81908 whole entry): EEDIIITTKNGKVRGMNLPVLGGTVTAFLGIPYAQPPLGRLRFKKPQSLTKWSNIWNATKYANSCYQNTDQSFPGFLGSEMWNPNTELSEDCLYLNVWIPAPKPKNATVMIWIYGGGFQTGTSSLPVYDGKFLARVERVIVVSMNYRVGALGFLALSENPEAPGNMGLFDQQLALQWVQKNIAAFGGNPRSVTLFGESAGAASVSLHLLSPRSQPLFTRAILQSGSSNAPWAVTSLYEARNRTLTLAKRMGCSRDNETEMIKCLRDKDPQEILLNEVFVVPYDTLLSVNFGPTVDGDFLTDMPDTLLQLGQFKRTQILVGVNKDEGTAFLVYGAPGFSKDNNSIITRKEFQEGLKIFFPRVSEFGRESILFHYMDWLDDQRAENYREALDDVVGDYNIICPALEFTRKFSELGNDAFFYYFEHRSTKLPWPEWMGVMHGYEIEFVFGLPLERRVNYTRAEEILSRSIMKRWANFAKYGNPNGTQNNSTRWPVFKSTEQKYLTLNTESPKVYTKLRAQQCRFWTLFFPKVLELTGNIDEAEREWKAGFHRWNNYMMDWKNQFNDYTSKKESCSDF
assay: Inhibition of equine serum BChE using butyrylthiocholine iodide as substrate preincubated for 15 mins prior to substrate addition by Ellman's method
pIC50: −log10 of the molar value.
Kind request: treat 5 as inclusive, so pIC50 at 5 or higher is Y, anything lower is N.

// known answers, use as guide
mol: O=C(NCCC1CCN(Cc2ccccc2)CC1)c1cc2cc(O)ccc2oc1=O
label_value: N
--
mol: O=C(NC1CCN(Cc2ccccc2)CC1)c1cc2cc(Br)ccc2oc1=O
label_value: N
--
mol: COc1cccc2cc(C(=O)NC3CCN(Cc4ccccc4)CC3)c(=O)oc12
label_value: N
--
mol: O=C(NC1CCN(Cc2ccccc2)CC1)c1cc2ccccc2oc1=O
label_value: N
--
mol: O=C(NC1CCN(Cc2ccccc2)CC1)c1cc2cc([N+](=O)[O-])ccc2oc1=O
label_value: N

# input # bool: pIC50 of COc1ccc2cc(C(=O)NCCC3CCN(Cc4ccccc4)CC3)c(=O)oc2c1 >= 5
# output Y

# input # bool: pIC50 of COc1cccc2cc(C(=O)NCCC3CCN(Cc4ccccc4)CC3)c(=O)oc12 >= 5
# output N

# input # bool: pIC50 of O=C(NCCC1CCN(Cc2ccccc2)CC1)c1cc2ccccc2oc1=O >= 5
# output Y

# input # bool: pIC50 of O=C(NC1CCN(Cc2ccccc2)CC1)c1cc2ccc(O)cc2oc1=O >= 5
# output N

# input # bool: pIC50 of O=C(NCCC1CCN(Cc2ccccc2)CC1)c1cc2cc(Br)ccc2oc1=O >= 5
# output Y

# input # bool: pIC50 of O=C(NCCC1CCN(Cc2ccccc2)CC1)c1cc2ccc(O)cc2oc1=O >= 5
# output N

# input # bool: pIC50 of COc1ccc2cc(C(=O)NC3CCN(Cc4ccccc4)CC3)c(=O)oc2c1 >= 5
# output N

----------
assay: Selectivity index, ratio of IC50 for equine serum BChE to IC50 for electric eel AChE
quantity: Ratio IC50
Numbers only.

Study these solved cases before continuing.
mol: O=C(NCCC1CCN(Cc2ccccc2)CC1)c1cc2cc([N+](=O)[O-])ccc2oc1=O
Ratio IC50: 26300
//
mol: O=C(NC1CCN(Cc2ccccc2)CC1)c1cc2cc([N+](=O)[O-])ccc2oc1=O
Ratio IC50: 51
//
mol: COc1ccc2cc(C(=O)NC3CCN(Cc4ccccc4)CC3)c(=O)oc2c1
Ratio IC50: 147
//
mol: COc1cccc2cc(C(=O)NCCC3CCN(Cc4ccccc4)CC3)c(=O)oc12
Ratio IC50: 9000
//
mol: O=C(NCCC1CCN(Cc2ccccc2)CC1)c1cc2ccc(O)cc2oc1=O
Ratio IC50: 321
//
mol: O=C(NC1CCN(Cc2ccccc2)CC1)c1cc2ccccc2oc1=O
Ratio IC50: 14

Batch lookup, Ratio IC50 per entry.
1. COc1ccc2cc(C(=O)NCCC3CCN(Cc4ccccc4)CC3)c(=O)oc2c1
2. O=C(NCCC1CCN(Cc2ccccc2)CC1)c1cc2cc(Br)ccc2oc1=O

# output
71
210

Batch lookup, Ratio IC50 per entry.
1. O=C(NC1CCN(Cc2ccccc2)CC1)c1cc2cc(Br)ccc2oc1=O
2. COc1cccc2cc(C(=O)NC3CCN(Cc4ccccc4)CC3)c(=O)oc12

# output
[1400, 32]
